target: MELK (Homo sapiens, UniProt Q14680); construct: purchased Reaction Biology Corporation; assay: HotSpot kinase assay, MELK; type: biochemical; conditions: HotSpot radiometric 33P ATP assay, 25° C., 120 min
Sequence (Q14680 whole entry): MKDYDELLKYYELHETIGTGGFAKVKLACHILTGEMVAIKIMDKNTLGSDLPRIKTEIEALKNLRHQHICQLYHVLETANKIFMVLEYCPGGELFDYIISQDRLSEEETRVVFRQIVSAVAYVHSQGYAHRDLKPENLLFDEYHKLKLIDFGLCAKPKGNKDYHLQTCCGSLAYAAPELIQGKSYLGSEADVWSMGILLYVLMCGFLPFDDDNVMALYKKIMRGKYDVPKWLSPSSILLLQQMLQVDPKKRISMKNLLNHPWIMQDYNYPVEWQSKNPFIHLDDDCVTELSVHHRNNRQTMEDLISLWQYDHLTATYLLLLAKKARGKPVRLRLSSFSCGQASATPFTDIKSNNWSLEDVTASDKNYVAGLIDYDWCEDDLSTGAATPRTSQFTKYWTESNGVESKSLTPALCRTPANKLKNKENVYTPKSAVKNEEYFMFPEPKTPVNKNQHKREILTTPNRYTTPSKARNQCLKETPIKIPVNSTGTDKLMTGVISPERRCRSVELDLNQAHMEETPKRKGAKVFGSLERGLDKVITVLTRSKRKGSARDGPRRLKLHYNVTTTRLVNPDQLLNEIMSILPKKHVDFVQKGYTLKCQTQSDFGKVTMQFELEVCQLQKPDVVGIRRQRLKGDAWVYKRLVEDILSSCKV
property name: IC50

Sample answers from the record:
[[record]]
molecule = "CN(C)[C@H]1CC[C@@H](COc2cncnc2-c2cnn(-c3ccccc3F)c2)CC1"
endpoint_result = "200 to 1000 nM"

[[record]]
molecule = "CCS(=O)(=O)c1ccc(-n2cc(-c3ncncc3OC[C@H]3CC[C@@H](N)CC3)cn2)c(F)c1"
endpoint_result = "200 to 1000 nM"

[[record]]
molecule = "N[C@H]1CC[C@@H](COc2cncnc2-c2cnn(-c3ccccc3C(F)(F)F)c2)CC1"
endpoint_result = "> 1000 nM"


Now examine the next entry.
Bench note: what IC50 did OC1CCC(COc2cncnc2-c2cnn(-c3ccccc3F)c2)CC1 (stereo not drawn) show?
> 1000 nM
